# pIC50 values compiled below
# Tested on: Platelet
# procedure summary: Inhibition of ADP-induced platelet aggregation in human platelet rich plasma
# Type: functional
Units for pIC50: none; it is -log10 of a concentration expressed in mol/L.

Field: example entries. Status: answers known.
CN1Cc2cccc(Oc3ncccc3NC(=O)Nc3ccc(OC(F)(F)F)cc3)c2C1C(C)(C)C (configuration not stated) ... 5.92
CC(C)(C)CN1CCC(c2ccccc2Oc2ncccc2NC(=O)Nc2ccc(OC(F)(F)F)cc2)CC1 ... 5.62
CC(C)CN1CCC(c2ccccc2Oc2ncccc2NC(=O)Nc2ccc(OC(F)(F)F)cc2)CC1 ... 5.12
O=C(Nc1ccc(OC(F)(F)F)cc1)Nc1cccnc1Oc1ccccc1C1CCN(Cc2ccccc2)CC1 ... 4.90

Please examine the following record next.
**Query** Could you please provide reported pIC50 for "CC(C)(C)CN1CCc2c(cccc2Oc2ncccc2NC(=O)Nc2ccc(OC(F)(F)F)cc2)C1" ? Thanks!
**Result** 5.51

----------
# assayed system: UniProt:P47900
# procedure summary: Displacement of [beta-33P]-2MeS-ADP from human P2Y1 receptor transfected in HEK293 cells after 1 hr by scintillation counting method
The threshold is 0.2 µM. Values of Ki beneath it are tagged yes (1); values meeting or exceeding it are tagged no (0).

# example entries with known answers
O=C(Nc1ccc(OC(F)(F)F)cc1)Nc1cccnc1Oc1cccc2c1CCN(Cc1ccccc1)C2 ... yes (1)
CC(C)(C)CCN1CCc2c(cccc2Oc2ncccc2NC(=O)Nc2ccc(OC(F)(F)F)cc2)C1 ... yes (1)
CCN1CCc2c(cccc2Oc2ncccc2NC(=O)Nc2ccc(OC(F)(F)F)cc2)C1 ... no (0)
O=C(Nc1ccc(OC(F)(F)F)cc1)Nc1cccnc1Oc1cccc2c1CCN(Cc1ccc(O)cc1)C2 ... no (0)

**Query** Item "O=C(Nc1ccc(OC(F)(F)F)cc1)Nc1cccnc1Oc1cccc2c1CCN(Cc1cccc(O)c1)C2" : Ki beneath 0.2 µM, strictly?
**Result** no (0)

----------
# assayed system: P2Y purinoceptor 1 (Homo sapiens)
# procedure summary: Displacement of [beta-33P]-2MeS-ADP from human P2Y1 receptor transfected in HEK293 cells after 1 hr by scintillation counting method
quantity: Ki (nM)
Unit nM implied. Number only.

Field: example entries. Status: answers known.
CCCN1CCc2c(cccc2Oc2ncccc2NC(=O)Nc2ccc(OC(F)(F)F)cc2)C1 ... 620
O=C(Nc1ccc(OC(F)(F)F)cc1)Nc1cccnc1Oc1cccc2c1CCN(Cc1ccccn1)C2 ... 1100
O=C(Nc1ccc(OC(F)(F)F)cc1)Nc1cccnc1Oc1cccc2c1CCN(CCc1ccccc1)C2 ... 290
O=C(Nc1ccc(OC(F)(F)F)cc1)Nc1cccnc1Oc1cccc2c1CCN(Cc1ccncc1)C2 ... 1040

Please examine the following record next.
**Query** Could you please provide reported Ki for "CC(C)CN1CCc2c(cccc2Oc2ncccc2NC(=O)Nc2ccc(OC(F)(F)F)cc2)C1" ? Thanks!
**Result** 60

----------
# procedure summary: Aqueous solubility of the compound in crystalline form in […] phosphate buffer at pH 6.5
# Assay type: physicochemical
quantity: solubility (µg/mL)
Unit µg/mL implied. Number only.

**Query** Could you please provide reported solubility for "CC(C)(C)CN1CCc2c(cccc2Oc2ncccc2NC(=O)Nc2ccc(OC(F)(F)F)cc2)C1" ? Thanks!
**Result** 3

----------
# procedure summary: Metabolic stability in rat liver microsomes assessed as compound remaining after 10 mins
# Format: ADME
# conditions used: read-out: Stability
quantity: remaining at 10 min (%)
Unit % implied. Number only.

Field: example entries. Status: answers known.
CN1Cc2cccc(Oc3ncccc3NC(=O)Nc3ccc(OC(F)(F)F)cc3)c2C1C(C)(C)C (stereo not drawn) ... 6
CC(C)(C)CN1CCC(c2ccccc2Oc2ncccc2NC(=O)Nc2ccc(OC(F)(F)F)cc2)CC1 ... 96

**Query** Could you please provide reported remaining at 10 min for "CC(C)(C)CN1CCc2c(cccc2Oc2ncccc2NC(=O)Nc2ccc(OC(F)(F)F)cc2)C1" ? Thanks!
**Result** 27

----------
# procedure summary: Aqueous solubility of the compound in partially crystalline form in […] phosphate buffer at pH 6.5
# Type: physicochemical
quantity: solubility (µg/mL)
Unit µg/mL implied. Number only.

**Query** Could you please provide reported solubility for "CC(C)(C)CN1CCC(c2ccccc2Oc2ncccc2NC(=O)Nc2ccc(OC(F)(F)F)cc2)CC1" ? Thanks!
**Result** 105

----------
# pIC50 values compiled below
# assayed system: Voltage-gated inwardly rectifying potassium channel KCNH2 (Homo sapiens, UniProt Q12809)
# Sequence (Q12809 whole entry): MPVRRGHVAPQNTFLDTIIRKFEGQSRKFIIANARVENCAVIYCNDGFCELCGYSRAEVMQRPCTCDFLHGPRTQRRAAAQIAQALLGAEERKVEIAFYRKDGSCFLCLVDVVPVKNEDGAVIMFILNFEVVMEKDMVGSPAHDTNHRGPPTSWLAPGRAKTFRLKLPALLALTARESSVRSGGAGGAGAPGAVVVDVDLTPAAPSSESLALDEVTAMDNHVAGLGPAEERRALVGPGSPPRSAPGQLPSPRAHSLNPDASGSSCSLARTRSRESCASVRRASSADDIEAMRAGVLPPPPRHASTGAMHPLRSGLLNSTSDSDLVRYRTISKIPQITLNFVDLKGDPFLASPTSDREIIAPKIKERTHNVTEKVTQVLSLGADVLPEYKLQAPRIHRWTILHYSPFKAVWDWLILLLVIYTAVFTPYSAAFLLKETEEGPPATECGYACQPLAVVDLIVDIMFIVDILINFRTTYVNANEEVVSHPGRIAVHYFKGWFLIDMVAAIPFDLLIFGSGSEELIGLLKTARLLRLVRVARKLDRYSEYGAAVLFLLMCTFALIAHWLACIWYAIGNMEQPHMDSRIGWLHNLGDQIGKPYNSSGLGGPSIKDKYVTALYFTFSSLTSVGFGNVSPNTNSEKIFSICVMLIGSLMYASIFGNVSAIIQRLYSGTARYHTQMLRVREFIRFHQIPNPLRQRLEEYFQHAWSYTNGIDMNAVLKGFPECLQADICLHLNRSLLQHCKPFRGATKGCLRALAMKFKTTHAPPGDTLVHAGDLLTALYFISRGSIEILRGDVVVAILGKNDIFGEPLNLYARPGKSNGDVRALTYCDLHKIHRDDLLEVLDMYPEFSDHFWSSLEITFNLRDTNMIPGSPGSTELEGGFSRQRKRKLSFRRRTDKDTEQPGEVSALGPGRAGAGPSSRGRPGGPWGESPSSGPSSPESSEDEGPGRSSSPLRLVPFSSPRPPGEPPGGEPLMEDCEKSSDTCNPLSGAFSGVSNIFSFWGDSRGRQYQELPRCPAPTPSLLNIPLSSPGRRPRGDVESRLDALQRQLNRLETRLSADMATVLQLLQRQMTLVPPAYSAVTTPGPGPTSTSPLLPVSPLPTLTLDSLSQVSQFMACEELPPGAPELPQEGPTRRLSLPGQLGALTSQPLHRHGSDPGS
Units for pIC50: none; it is -log10 of a concentration expressed in mol/L.

CC(C)(C)CN1CCC(c2ccccc2Oc2ncccc2NC(=O)Nc2ccc(OC(F)(F)F)cc2)CC1 ... 5.34

**Query** Lab note: Voltage-gated inwardly rectifying potassium channel KCNH2 (Homo sapiens, UniProt Q12809) assay, enter pIC50 for CN1Cc2cccc(Oc3ncccc3NC(=O)Nc3ccc(OC(F)(F)F)cc3)c2C1C(C)(C)C (stereo not drawn) here
**Result** 5.14

**Query** Lab note: Voltage-gated inwardly rectifying potassium channel KCNH2 (Homo sapiens, UniProt Q12809) assay, enter pIC50 for "CC(C)CN1CCC(c2ccccc2Oc2ncccc2NC(=O)Nc2ccc(OC(F)(F)F)cc2)CC1" here
**Result** 5.22

----------
# procedure summary: Permeability of the compound by PAMPA
# Assay type: ADME
# conditions used: read-out: permeability
quantity: Papp (×10⁻⁶ cm/s)
Unit ×10⁻⁶ cm/s implied. Number only.

CN1Cc2cccc(Oc3ncccc3NC(=O)Nc3ccc(OC(F)(F)F)cc3)c2C1C(C)(C)C (configuration not stated) ... 78.4

Please examine the following record next.
**Query** Could you please provide reported Papp for "CC(C)(C)CN1CCC(c2ccccc2Oc2ncccc2NC(=O)Nc2ccc(OC(F)(F)F)cc2)CC1" ? Thanks!
**Result** 28.6

----------
# assayed system: P2Y purinoceptor 1 (Homo sapiens, UniProt P47900)
# Sequence (P47900 whole entry): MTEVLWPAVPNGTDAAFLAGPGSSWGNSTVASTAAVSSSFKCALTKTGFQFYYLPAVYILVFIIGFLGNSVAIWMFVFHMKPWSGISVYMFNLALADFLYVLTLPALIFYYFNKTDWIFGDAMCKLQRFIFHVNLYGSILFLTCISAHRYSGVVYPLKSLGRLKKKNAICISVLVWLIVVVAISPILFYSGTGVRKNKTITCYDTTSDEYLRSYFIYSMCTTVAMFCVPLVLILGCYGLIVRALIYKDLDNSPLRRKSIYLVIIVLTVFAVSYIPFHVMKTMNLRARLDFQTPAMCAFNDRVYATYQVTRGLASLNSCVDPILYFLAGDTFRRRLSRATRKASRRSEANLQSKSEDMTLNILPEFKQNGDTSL
# procedure summary: Displacement of [beta-33P]-2MeS-ADP from human P2Y1 receptor transfected in HEK293 cells after 1 hr by scintillation counting method
Response field class: string, computed from recorded Ki by ranges range A (below 60 nM), range B (60 nM to below 600 nM), range C (600 nM or more)

**Query** Form: Item = "CC(C)CN1Cc2cccc(Oc3ncccc3NC(=O)Nc3ccc(OC(F)(F)F)cc3)c2C1" ; Class = ?
**Result** range B

**Query** Form: Item = "CC(C)(C)CN1CCC(c2ccccc2Oc2ncccc2NC(=O)Nc2ccc(OC(F)(F)F)cc2)CC1" ; Class = ?
**Result** range A

**Query** Form: Item = "O=C(Nc1ccc(OC(F)(F)F)cc1)Nc1cccnc1Oc1cccc2c1CCNC2" ; Class = ?
**Result** range C

**Query** Form: Item = "CC(C)N1CCc2c(cccc2Oc2ncccc2NC(=O)Nc2ccc(OC(F)(F)F)cc2)C1" ; Class = ?
**Result** range B

**Query** Form: Item = "O=C(Nc1ccc(OC(F)(F)F)cc1)Nc1cccnc1Oc1cccc2c1CCN(Cc1cccnc1)C2" ; Class = ?
**Result** range C

----------
# procedure summary: Permeability from apical to basolateral side of human Caco2 cells
# Type: ADME, cell-based
# conditions used: Caco-2, read-out: permeability
quantity: Papp A→B

**Query** Could you please provide reported Papp A→B for CN1Cc2cccc(Oc3ncccc3NC(=O)Nc3ccc(OC(F)(F)F)cc3)c2C1C(C)(C)C (stereo unspecified) ? Thanks!
**Result** < 1.5 ×10⁻⁶ cm/s

----------
# assayed system: P2Y purinoceptor 1 (Homo sapiens)
# procedure summary: Displacement of [beta-33P]-2MeS-ADP from human P2Y1 receptor transfected in HEK293 cells after 1 hr by scintillation counting method
The threshold is 200 nM. Values of Ki beneath it are tagged Satisfied; values meeting or exceeding it are tagged Not satisfied.

# example entries with known answers
CN1Cc2cccc(Oc3ncccc3NC(=O)Nc3ccc(OC(F)(F)F)cc3)c2C1C(C)(C)C (configuration not stated) ... Satisfied
O=C(Nc1ccc(OC(F)(F)F)cc1)Nc1cccnc1Oc1cccc2c1CCN(Cc1ccccc1O)C2 ... Not satisfied
CC(C)(C)CN1Cc2cccc(Oc3ncccc3NC(=O)Nc3ccc(OC(F)(F)F)cc3)c2C1 ... Satisfied
CN1Cc2cccc(Oc3ncccc3NC(=O)Nc3ccc(OC(F)(F)F)cc3)c2C1 ... Not satisfied
O=C(Nc1ccc(OC(F)(F)F)cc1)Nc1cccnc1Oc1ccccc1C1CCN(Cc2ccccc2)CC1 ... Satisfied
CC(C)(C)CN1CCc2c(cccc2Oc2ncccc2NC(=O)Nc2ccc(OC(F)(F)F)cc2)C1 ... Satisfied

Then this molecule:
**Query** Item "CC(C)CN1CCC(c2ccccc2Oc2ncccc2NC(=O)Nc2ccc(OC(F)(F)F)cc2)CC1" : Ki beneath 200 nM, strictly?
**Result** Satisfied

Numbers sourced from ChEMBL document CHEMBL3091409.
